Test system: RXF 393 renal
TEST DETAILS: NCI tumour cell line growth inhibition, 48 h; in the data active = GI50 below about 0.43 µM; inactive = the rest
Just give me one of these, please: Yes for active, No for inactive

Task: Tell me the assay call for `COc1ccc(/C=C\c2cc(OC)c(OC)c(OC)c2)c(NS(=O)(=O)c2ccc(F)cc2)c1O` please.
Output: Yes

Task: # iterate: `COC(=O)[C@]12CC[C@@H](C)[C@H](C)[C@@H]1C1=CC[C@@H]3[C@@](C)(CC#N)C4=C(C[C@@]3(C)[C@]1(C)CC2)OC[C@]4(C)C=O`
Output: No

Task: # iterate: CC[C@@H](C)/C=C(C)/C=C/C(=O)c1c(O)c(-c2ccc(O)cc2)cn(OC2CC(=O)CCC(C)OC(=O)CC2O)c1=O (stereo partly specified)
Output: Yes

Task: # iterate: `Cc1cc(-c2cc(OC(=O)c3ccccc3)ccc2Cl)cc2nnc(Nc3ccc(OCCN4CCCC4)cc3)nc12`
Output: No

Task: # iterate: CCC(C)C1NC(=O)C(NC(=O)C(CC(C)C)N(C)C(=O)[C@@H]2CC(O)CN2C(=O)[C@H](C)O)C(C)OC(=O)[C@H](Cc2ccc(OC)cc2)N(C)C(=O)[C@@H]2CCCN2C(=O)[C@H](CC(C)C)NC(=O)C(C)C(=O)[C@H](C(C)C)OC(=O)CC1O (stereo partly specified)
Output: Yes

Task: # iterate: `COc1cc(N2CCC(N)CC2)ccc1Nc1ncc(Cl)c(-c2c[nH]c3ccccc23)n1`
Output: Yes

====

Test system: HCT-116 colon
TEST DETAILS: NCI tumour cell line growth inhibition, 48 h
Would you mind telling me the reported TGI of each entry?

Task: Which measured TGI value corresponds to Cc1cc(Cl)cc2c1NC(=O)C2(O)C(C(=O)c1ccccc1)c1ccccc1 (stereo unspecified) ?
Output: 79.3 µM

Task: # iterate: `O=C(N/N=C/c1ccncc1)c1ccc(F)cc1`
Output: > 40 µM

Task: # iterate: `O=C1OC(c2ccccc2Br)=N/C1=C/c1ccccc1`
Output: > 100 µM

Task: # iterate: `N#CCCN(c1ccc(C=O)cc1)S(=O)(=O)c1ccccc1`
Output: > 100 µM

Task: # iterate: CCOC(=O)C(=O)C(C#N)c1ccc(Cl)cc1 (stereo unspecified)
Output: > 100 µM

Task: # iterate: `COc1cc(CC(=O)O)c([N+](=O)[O-])cc1OC`
Output: > 100 µM

====

Test system: PC-3 prostate
TEST DETAILS: NCI tumour cell line growth inhibition, 48 h
Would you mind telling me the reported GI50 of each entry?

Task: Which measured GI50 value corresponds to `C#CCNC(=O)CC[C@@H](C)[C@H]1CC[C@H]2[C@@H]3CC[C@@H]4CC(=O)CC[C@]4(C)[C@H]3CC[C@]12C` ?
Output: 2.91 µM

Task: # iterate: `Nc1ncnc2c1ccn2-c1cccc(NC(=O)c2ccc(N3CCOCC3)c(C(F)(F)F)c2)c1`
Output: 2.51 µM

Task: # iterate: CCCCCCCCCC[C@H](O)[C@H]1CC[C@@H]([C@@H](O)CC[C@H](O)[C@@H]2CCC(CCCCCCC[C@@H](O)CC3=C[C@H](C)OC3=O)O2)O1 (some centres undefined)
Output: 4.66 µM

Task: # iterate: `O=C(CN1CCN(C(=O)c2ccco2)CC1)Nc1ccc(Cl)cc1C(=O)c1ccccc1Cl`
Output: 2.75 µM

====

Would you mind telling me the reported TGI of each entry?
Test system: U251 CNS
TEST DETAILS: NCI tumour cell line growth inhibition, 48 h
// note: answer is a bare numeric in µM

Task: Which measured TGI value corresponds to CCCCCCCCCCCCCCCC(=O)OC1C(O)C(O)C(O)C(O)C12CO2 (centres undefined) ?
Output: 39.2

Task: # iterate: `CN(C)CC(C)(C)CN1c2ccccc2Sc2ccccc21`
Output: 26.4

Task: # iterate: CC(C)C1=CC2=C(C(=O)C1=O)C13CCCC(C)(C)C1CC2OC3=O (centres undefined)
Output: 49.7

Task: # iterate: `CC(C)C(=O)/C=C/c1c(Cl)cccc1Cl`
Output: 11.7

Task: # iterate: `CC(=O)ON=C1C=CC(=C(C#N)c2ccccc2)C=C1`
Output: 10.5

Task: # iterate: `Cc1c(C(=O)c2ccccc2)[n+](=O)c2cc(F)c(F)cc2n1[O-]`
Output: 3.08

====

System: HT29 colon
TEST DETAILS: NCI tumour cell line growth inhibition, 48 h
Would you mind telling me the reported TGI of each entry?

Task: Item: Cc1ccc(NC(=O)CC2SC(=Nc3ccc(Cl)cc3)NC2=O)cc1C (configuration not stated) Test system: HT29 colon Read-out: TGI Value: ?
Output: 33.2 µM

Task: # iterate: `CCOc1ccc2c(c1)C(=O)c1c-2n(CCCN=[N+]=[N-])c(=O)c2cc([N+](=O)[O-])ccc12`
Output: > 100 µM

Task: # iterate: OCC1OC(n2cnc3c(Cl)nc(Nc4ccc(Cl)c(Cl)c4)nc32)CC1O (configuration not stated)
Output: 15.2 µM

Task: # iterate: `CSC1=Nc2ccccc2N=C(c2ccccc2)C1`
Output: > 100 µM

Task: # iterate: `O=C(NC(OCc1ccccc1)(C(F)(F)F)C(F)(F)F)OCc1ccccc1`
Output: 32.2 µM

Task: # iterate: O=C1OCC2=C1C(c1cccc(Cl)c1)c1cc3c(cc1N2CCO)CCC3 (configuration not stated)
Output: 0.095 µM

Task: # iterate: `CN(C)NC1=NS(=O)(=O)c2cc3c(=O)n(C)[nH]c3cc2S1`
Output: > 10 µM

Task: # iterate: Nc1nc(N)c2c(n1)CCC(S(=O)(=O)c1ccc3ccccc3c1)C2 (configuration not stated)
Output: > 51.2 µM

Task: # iterate: `C/C(CCN(C)C)=N\OC(=O)c1ccccc1`
Output: > 100 µM

Task: # iterate: `Cc1cccc(-c2nc(-c3cnccn3)n(Cc3ccccc3)n2)c1`
Output: > 100 µM

Task: # iterate: `CN(C)C1CN(C(=O)c2cc(-c3ccc4ncnc(N5CCc6cc(F)c(Cl)cc65)c4c3)cnc2N)C1`
Output: > 100 µM

Task: # iterate: O=C1CCC2COc3ccc(O)c1c32 (configuration not stated)
Output: > 100 µM

Task: # iterate: C=C(C)CCC(O)[C@](C)(O)[C@H]1[C@H](O)C[C@@]2(C)[C@@H]3CCc4c(cc(OC5OC(CO)C(O)C(O)C5O)c(O)c4C)C3(C)C(=O)C[C@]12C (some centres not stated)
Output: > 100 µM

Task: # iterate: `CCn1ncc(N=O)c1N`
Output: > 100 µM

Task: # iterate: NC(CSCSCC(N)C(=O)O)C(=O)O (configuration not stated)
Output: > 225 µM

Task: # iterate: `Cn1c(=O)c2c(=O)cc(N)[nH]c2n(C)c1=O`
Output: > 100 µM

Task: # iterate: `c1ccc(/C(=N/Nc2ccccn2)c2cccnn2)cc1`
Output: > 58.8 µM

Task: # iterate: `CC(=O)Nc1cc2c3c(cccc3c1)-c1ccccc1-2`
Output: > 100 µM

Task: # iterate: Clc1ccccc1C1SCc2nc3ccccc3n21 (configuration not stated)
Output: > 100 µM

Task: # iterate: `C[C@@H]1CC[C@@]2(C)[C@H](C)/C(=C\COC(=O)/C=C/c3ccc(O)c(O)c3)CC[C@@]12C`
Output: 25.1 µM

Task: # iterate: `O=C(Nc1cccc(-n2cc(-c3ccncc3)c(-c3ccc(Cl)c(O)c3)n2)c1)Nc1ccc(Cl)c(Cl)c1`
Output: > 32.5 µM

Task: # iterate: `COc1cc2c(cc1[N+](=O)[O-])C(=O)C(Br)(Br)CCC2`
Output: 11.2 µM

====

System: M14 melanoma
TEST DETAILS: NCI tumour cell line growth inhibition, 48 h; in the data active = GI50 below about 0.43 µM; inactive = the rest
Just give me one of these, please: active, inactive

Task: Tell me the assay call for CO/C(=C1/NC(=O)C(Cc2ccc(O)c(Br)c2)N(C)C(=O)C(C)NC(=O)CCC/C=C(\C)CCC(C)OC1=O)c1ccccc1 (stereo not drawn) please.
Output: active

Task: # iterate: `CC(=O)ON=C1C=CC(=C(C#N)c2ccccc2)C=C1`
Output: inactive

Task: # iterate: `Fc1ccc(Nc2nc3nonc3nc2Nc2ccc(I)cc2)cc1`
Output: active

Task: # iterate: `COc1ncc(-c2ccc3nccc(C#CCCCCC(=O)NO)c3c2)cc1NS(=O)(=O)c1ccc(F)cc1F`
Output: active

Task: # iterate: `COCCn1c2c([n+](Cc3cnccn3)c1C)C(=O)c1ccccc1C2=O`
Output: active

Task: # iterate: CCCCCCCCCC[C@H](O)[C@H]1CC[C@@H]([C@@H](O)CC[C@H](O)[C@@H]2CCC(CCCCCCC[C@@H](O)CC3=C[C@H](C)OC3=O)O2)O1 (stereo partly drawn)
Output: inactive

Task: # iterate: `O=C1c2ccc3c4c(ccc(c24)C(=O)N1CCNCc1ccccc1)C(=O)N(CCNCc1ccccc1)C3=O`
Output: inactive

Task: # iterate: `CC[C@@]1(O)C(=O)OCc2c1cc1n(c2=O)Cc2c-1nc1cc(F)c(C)c3c1c2[C@@H](NC(=O)CO)CC3`
Output: active

Reference for the values: PubChem BioAssay (NCI)
